- study system: T1, human CD155 (poliovirus receptor, PVR) on cells (U87/U87MG, HAP1) (human, UniProt P15151 21-417)
- T1 construct: whole, on cells
- T1 sequence (looked up): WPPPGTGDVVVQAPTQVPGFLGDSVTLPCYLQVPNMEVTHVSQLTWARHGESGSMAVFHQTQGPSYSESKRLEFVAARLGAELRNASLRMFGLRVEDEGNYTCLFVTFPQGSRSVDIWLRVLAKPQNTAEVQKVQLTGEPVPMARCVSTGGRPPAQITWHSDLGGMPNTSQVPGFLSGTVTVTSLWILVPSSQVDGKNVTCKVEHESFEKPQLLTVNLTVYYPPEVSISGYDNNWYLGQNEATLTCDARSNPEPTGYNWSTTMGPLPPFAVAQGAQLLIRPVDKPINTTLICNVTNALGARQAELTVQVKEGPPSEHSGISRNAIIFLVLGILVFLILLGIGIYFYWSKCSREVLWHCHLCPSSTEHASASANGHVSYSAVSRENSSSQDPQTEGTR
- protocol text: cell binding on U-87 cells

{"binder": "VH3 N54Q D56E / VK3 N92E (antibody, V domains shown, Humanized variant of Ab825; also called antibody (iii)) VH: EVQLVQSGSELKKPGASVKISCKTSGYTFTEYTMHWVRQPHGKGLEWIGGIHPNQGETSYNQRFKGRVTLTVDKSTSTAYMELSSLRSEDTAVYYCARWTGDFDYWGQGTLVTVSS VL: DIQMTQSPSAMSASVGDRVTITCKASQNVGTNVAWYQQKPGQPPKALIYSASYRYSGVPDRFSGSGSGTDFTLTISSLQAEDLAEYFCQQYESYPYTFGQGTKLEIK", "EC50 [µg/mL]": 0.284}
{"binder": "VH3 N54S D56G / VK3 N92Q (antibody, V domains shown, Humanized variant of Ab825; also called antibody (iv); Sample 3) VH: EVQLVQSGSELKKPGASVKISCKTSGYTFTEYTMHWVRQPHGKGLEWIGGIHPNSGGTSYNQRFKGRVTLTVDKSTSTAYMELSSLRSEDTAVYYCARWTGDFDYWGQGTLVTVSS VL: DIQMTQSPSAMSASVGDRVTITCKASQNVGTNVAWYQQKPGQPPKALIYSASYRYSGVPDRFSGSGSGTDFTLTISSLQAEDLAEYFCQQYQSYPYTFGQGTKLEIK", "EC50 [µg/mL]": 0.0778}
{"binder": "VH4 N54Q D56E / VK3 N92E (antibody, V domains shown, Humanized variant of Ab825; also called antibody (v)) VH: EVQLVQSGSELKKPGASVKVSCKTSGYTFTEYTMHWVRQPHGKGLEWIGGIHPNQGETSYNQRFKGRVTITVDKSTSTAYMELSSLRSEDTAVYYCARWTGDFDYWGQGTLVTVSS VL: DIQMTQSPSAMSASVGDRVTITCKASQNVGTNVAWYQQKPGQPPKALIYSASYRYSGVPDRFSGSGSGTDFTLTISSLQAEDLAEYFCQQYESYPYTFGQGTKLEIK", "EC50 [µg/mL]": 0.551}
{"binder": "VH4 N54S D56G / VK3 N92Q (antibody, V domains shown, Humanized variant of Ab825; also called antibody (ix); Sample 4) VH: EVQLVQSGSELKKPGASVKVSCKTSGYTFTEYTMHWVRQPHGKGLEWIGGIHPNSGGTSYNQRFKGRVTITVDKSTSTAYMELSSLRSEDTAVYYCARWTGDFDYWGQGTLVTVSS VL: DIQMTQSPSAMSASVGDRVTITCKASQNVGTNVAWYQQKPGQPPKALIYSASYRYSGVPDRFSGSGSGTDFTLTISSLQAEDLAEYFCQQYQSYPYTFGQGTKLEIK", "EC50 [µg/mL]": 0.0932}
{"binder": "VH4 N54S D56G / VK3 N92E (antibody, V domains shown, Humanized variant of Ab825; also called antibody (vii)) VH: EVQLVQSGSELKKPGASVKVSCKTSGYTFTEYTMHWVRQPHGKGLEWIGGIHPNSGGTSYNQRFKGRVTITVDKSTSTAYMELSSLRSEDTAVYYCARWTGDFDYWGQGTLVTVSS VL: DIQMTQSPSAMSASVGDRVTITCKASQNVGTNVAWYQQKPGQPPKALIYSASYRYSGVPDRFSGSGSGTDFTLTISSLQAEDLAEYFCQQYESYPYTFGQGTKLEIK", "EC50 [µg/mL]": 0.191}
{"binder": "Ab825 (VH0/VK0), human IgG1 chimeric antibody (antibody, V domains shown, Murine variable regions in a human IgG1 chimeric antibody, derived from D171) VH: EVQLQQSGPELVKPGASVKISCKTSGYTFTEYTMHWVKQSHGKSLEWIGGIHPNNGDTSYNQRFKGKATLTVDKSSSTAYMELRSLTSEDSAVYYCARWTGDFDYWGQGTTLTVST VL: DIVMTQSPKFMSTSVGDRVSVTCKASQNVGTNVAWYQQKPGQSPKALIYSASYRYSGVPDRFTGSGSGTDFTLTISNVQSEDLAEYFCQQYNSYPYTFGGGTKLEIK", "EC50 [µg/mL]": 0.0869}
{"binder": "VH3 N54Q D56E / VK2 N92E (antibody, V domains shown, Humanized variant of Ab825; also called antibody (i)) VH: EVQLVQSGSELKKPGASVKISCKTSGYTFTEYTMHWVRQPHGKGLEWIGGIHPNQGETSYNQRFKGRVTLTVDKSTSTAYMELSSLRSEDTAVYYCARWTGDFDYWGQGTLVTVSS VL: DIVMTQSPSAMSASVGDRVTITCKASQNVGTNVAWYQQKPGQPPKALIYSASYRYSGVPDRFTGSGSGTDFTLTISSLQAEDLAEYFCQQYESYPYTFGQGTKLEIK", "EC50 [µg/mL]": 0.272}
{"binder": "VH4 N54Q D56E / VK3 N92Q (antibody, V domains shown, Humanized variant of Ab825; also called antibody (viii)) VH: EVQLVQSGSELKKPGASVKVSCKTSGYTFTEYTMHWVRQPHGKGLEWIGGIHPNQGETSYNQRFKGRVTITVDKSTSTAYMELSSLRSEDTAVYYCARWTGDFDYWGQGTLVTVSS VL: DIQMTQSPSAMSASVGDRVTITCKASQNVGTNVAWYQQKPGQPPKALIYSASYRYSGVPDRFSGSGSGTDFTLTISSLQAEDLAEYFCQQYQSYPYTFGQGTKLEIK", "EC50 [µg/mL]": 0.523}
{"binder": "VH3 N54S D56G / VK2 N92Q (antibody, V domains shown, Humanized variant of Ab825; also called antibody (ii); Sample 2) VH: EVQLVQSGSELKKPGASVKISCKTSGYTFTEYTMHWVRQPHGKGLEWIGGIHPNSGGTSYNQRFKGRVTLTVDKSTSTAYMELSSLRSEDTAVYYCARWTGDFDYWGQGTLVTVSS VL: DIVMTQSPSAMSASVGDRVTITCKASQNVGTNVAWYQQKPGQPPKALIYSASYRYSGVPDRFTGSGSGTDFTLTISSLQAEDLAEYFCQQYQSYPYTFGQGTKLEIK", "EC50 [µg/mL]": 0.069}
{"binder": "VH4 N54S D56E / VK3 N92E (antibody, V domains shown, Humanized variant of Ab825; also called antibody (vi)) VH: EVQLVQSGSELKKPGASVKVSCKTSGYTFTEYTMHWVRQPHGKGLEWIGGIHPNSGETSYNQRFKGRVTITVDKSTSTAYMELSSLRSEDTAVYYCARWTGDFDYWGQGTLVTVSS VL: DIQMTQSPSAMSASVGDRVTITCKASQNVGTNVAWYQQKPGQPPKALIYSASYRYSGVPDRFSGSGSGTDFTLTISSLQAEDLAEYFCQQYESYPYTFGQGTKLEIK", "EC50 [µg/mL]": 0.585}
